# Test system: Escherichia coli TOP10
# Experiment Summary: shrunken log2 fold change of peptide-encoding DNA abundance (4.5 h post-induction vs induction); higher = less antimicrobial activity (less host growth inhibition)
# Run Conditions: time post-induction: 4.5 h; library: site-saturation at positions 5, 18, 19, 20
Note: every record was labeled by where its shrunken log2 fold change sits among small value (below -0.2), mid value (-0.2 to below 0.008), large value (0.008 or more)

Worked cases, answers included:
• RRIRGRPPRLPRPRPRPSKQPRP = mid value
• RRIRNRPPRLPRPRPRPSEAPRP = large value
• RRIRWRPPRLPRPRPRPEFVPRP = large value

Record RRIRYRPPRLPRPRPRPWPMPRP — which class? mid value

The entry to classify is RRIRPRPPRLPRPRPRPDTEPRP ; which class holds it? small value

Which shrunken log2 fold change band matches RRIRERPPRLPRPRPRPNHKPRP ? small value

Which bin should I file RRIRGRPPRLPRPRPRPTDYPRP under? mid value

---

# System: Escherichia coli TOP10
# Experiment Summary: shrunken log2 fold change of peptide-encoding DNA abundance (4.5 h post-induction vs induction); higher = less antimicrobial activity (less host growth inhibition)
# Run Conditions: time post-induction: 4.5 h; library: site-saturation at positions 5, 18, 19, 20
So basically, the class depends on measured shrunken log2 fold change, and the ranges are bin A: < -0.5; bin B: ≥ -0.5 and < -0.001; bin C: ≥ -0.001

Answered examples (2):
* RRIRYRPPRLPRPRPRPCCRPRP | bin A
* RRIRVRPPRLPRPRPRPEVRPRP | bin C

Where would RRIRPRPPRLPRPRPRPHNRPRP land among the classes by reported shrunken log2 fold change? bin B

Tag the class for RRIRDRPPRLPRPRPRPWVIPRP bin B

Lab note: sort RRIRNRPPRLPRPRPRPRIKPRP into the matching shrunken log2 fold change band. bin C

Hey, which category is RRIRCRPPRLPRPRPRPVRKPRP in, do you know? bin C

Given RRIRVRPPRLPRPRPRPSKVPRP , name the class its shrunken log2 fold change places it in. bin A

---

# Tested on: Escherichia coli TOP10
# Experiment Summary: shrunken log2 fold change of peptide-encoding DNA abundance (4.5 h post-induction vs induction); higher = less antimicrobial activity (less host growth inhibition)
# Run Conditions: time post-induction: 4.5 h; library: site-saturation at positions 5, 18, 19, 20
Parameter threshold = 0.1. Response is Met when shrunken log2 fold change meets or exceeds it, else Not met.

# example entries with known answers
* RRIRTRPPRLPRPRPRPVAEPRP | Met
* RRIRFRPPRLPRPRPRPMHNPRP | Not met
* RRIRPRPPRLPRPRPRPQDSPRP | Not met

Decide: is the reported value of shrunken log2 fold change for RRIRDRPPRLPRPRPRPQPMPRP equal to or greater than 0.1? Not met

Reported shrunken log2 fold change reaches at least 0.1 for RRIRWRPPRLPRPRPRPDDCPRP ? Not met

Test whether the sequence RRIRKRPPRLPRPRPRPIARPRP records shrunken log2 fold change of 0.1 or higher. Not met

# bool: shrunken log2 fold change of RRIRNRPPRLPRPRPRPKLKPRP >= 0.1 Met

---

# Test system: Escherichia coli TOP10;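 note: peptides expressed intracellularly from a pBAD plasmid library in pooled LB shake-flask culture, induced with 0.3% L-arabinose, DNA abundance read by NGS, three biological replicates, DESeq2 with apeglm shrinkage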
# Experiment Summary: shrunken log2 fold change of peptide-encoding DNA abundance (4.5 h post-induction vs induction); higher = less antimicrobial activity (less host growth inhibition)
# Run Conditions: time post-induction: 4.5 h; library: site-saturation at positions 5, 18, 19, 20
Quantity Kind: shrunken log2 fold change
I'd appreciate a reply containing only the number, no unit.

• RRIRKRPPRLPRPRPRPPYCPRP = 0.0662

Quick one: give measured shrunken log2 fold change for RRIRMRPPRLPRPRPRPEYRPRP -0.000921

Quickly give me recorded shrunken log2 fold change for RRIRARPPRLPRPRPRPSWIPRP -0.0935

Read the entry RRIRKRPPRLPRPRPRPYKNPRP and write its reported shrunken log2 fold change. -0.176

Give a short answer stating reported shrunken log2 fold change for RRIRQRPPRLPRPRPRPWMAPRP . -0.147

Supply measured shrunken log2 fold change of RRIRERPPRLPRPRPRPKKHPRP in your reply. -0.55
